- ASSAY REMARKS: Toxicity liver stage against HepG2, at 10uM
- Assay type: cell-based
- Design: test concentration 10 uM, cell line HepG2-A16-CD81EGFP
- RECORDED CONDITIONS: human, HepG2-A16-CD81EGFP cells; read-out: INHIBITION
Kindly return y if reported cytotoxicity at 10 µM is no lower than -10%; return n if it is lower.

Decide: is the reported value of cytotoxicity at 10 µM for Cc1nnn2c1COCC(CNC(=O)c1ccnnc1)C2 (stereo unspecified) equal to or greater than -10%?
y

Decide: is the reported value of cytotoxicity at 10 µM for COC(=O)NCCC(=O)NC(C)Cc1cccc(Br)c1 (stereo unspecified) equal to or greater than -10%?
n

Decide: is the reported value of cytotoxicity at 10 µM for COc1cc2[nH]c(=O)c(CN3CCC[C@H]3CO)cc2c(OC)c1OC equal to or greater than -10%?
n

Decide: is the reported value of cytotoxicity at 10 µM for CN(C)CCn1ccnc1C1CCCN(c2cc(N)ncn2)C1 (stereo unspecified) equal to or greater than -10%?
y

Decide: is the reported value of cytotoxicity at 10 µM for O=C(Cc1n[nH]c2ccccc12)N1CCCC1Cn1cccn1 (stereo unspecified) equal to or greater than -10%?
n

Decide: is the reported value of cytotoxicity at 10 µM for Cc1cc(C2CCCN(C(=O)c3c(C)nn4cccnc34)C2)n[nH]1 (stereo unspecified) equal to or greater than -10%?
y

---

// reported cytotoxicity at 10 µM per item
- ASSAY REMARKS: Toxicity liver stage against HepG2, at 10uM
- Format: cell-based
- Set-up: test concentration 10 uM, cell line HepG2-A16-CD81EGFP
- RECORDED CONDITIONS: human, HepG2-A16-CD81EGFP cells; read-out: INHIBITION
Write the answer as a number in %, unit excluded.

The cases that follow already have their cytotoxicity at 10 µM on record.
{"columns": ["SMILES", "cytotoxicity at 10 µM, %"],
 "data": [
  ["Cc1csc(N2CCC(CCN3CCCC3=O)CC2)n1", -5.7],
  ["N#CC1(C(=O)N2CCCN(Cc3cscn3)CC2)CCCCC1", -2.54],
  ["CC(C)c1cc(C(=O)N2CCN(c3ncc4c(n3)CCOC4)CC2)on1", 1.57],
  ["N#Cc1ncn(CCC(=O)Nc2c(Cl)cccc2Cl)n1", -11.4],
  ["CCn1c(=O)c2sccc2n(CC(=O)Nc2cccc(Cl)c2)c1=O", 0.115]
]}

Please turn your attention to the following entry.
Reported cytotoxicity at 10 µM ( Cc1ccc(N2C[C@H]3OCC[C@H]3[C@H](C(=O)NC3CCCC3)C2)nn1 ) = -75.6

---

// reported cytotoxicity at 10 µM per item
- ASSAY REMARKS: Toxicity liver stage against HepG2, at 10uM
- Assay type: cell-based
- Design: test concentration 10 uM, cell line HepG2-A16-CD81EGFP
- RECORDED CONDITIONS: human, HepG2-A16-CD81EGFP cells; read-out: INHIBITION
Write the answer as a number in %, unit excluded.

The cases that follow already have their cytotoxicity at 10 µM on record.
{"columns": ["COMPOUND", "cytotoxicity at 10 µM [%]"],
 "data": [
  ["Cc1cc(C)c2cc(C(=O)N3CCN(Cc4ccco4)CC3)[nH]c2c1", -51.4],
  ["O=C(Cn1cnc2ccsc2c1=O)c1ccc2c(c1)OCCO2", 3.1],
  ["CNC(=O)[C@@H]1C[C@H]2CN(Cc3csc(C)n3)C[C@H]2N1C(C)C", 7.08],
  ["O=S(=O)(Cc1cccc(F)c1)Nc1cc(Cl)ccn1", -8.69],
  ["CNC(=O)[C@@H]1C[C@@H](N)CN1C1CCN(Cc2ccccn2)CC1", -53.5]
]}

Reported cytotoxicity at 10 µM ( CN1C(=O)CCC12CCCN(C(=O)c1ccncc1F)C2 (stereo not drawn) ) = 11

Reported cytotoxicity at 10 µM ( CN1CCCC1c1nccnc1-c1ccc(C(=O)O)cc1 (stereo not drawn) ) = 11

Reported cytotoxicity at 10 µM ( CCS(=O)(=O)N1CCN(C(=O)NC(C)C)CC2(CNC(=O)C2)C1 (stereo not drawn) ) = -0.82

---

- ASSAY REMARKS: Toxicity liver stage against HepG2, at 10uM
- Type: cell-based
- Set-up: test concentration 10 uM, cell line HepG2-A16-CD81EGFP
- RECORDED CONDITIONS: human, HepG2-A16-CD81EGFP cells; read-out: INHIBITION
TEST READOUT: cytotoxicity at 10 µM (%)
Write the answer as a number in %, unit excluded.

Reported cytotoxicity at 10 µM ( CC(=O)N1CCC(n2ccc(-c3cnc(N4CCOCC4)nc3)n2)CC1 ) = -10.4

---

- ASSAY REMARKS: Toxicity liver stage against HepG2, at 10uM
- Format: cell-based
- Parameters: test concentration 10 uM, cell line HepG2-A16-CD81EGFP
- RECORDED CONDITIONS: human, HepG2-A16-CD81EGFP cells; read-out: INHIBITION
// reported cytotoxicity at 10 µM per item
Write the answer as a number in %, unit excluded.

{"columns": ["COMPOUND", "UNITS TEXT", "MEASURED RESULT"],
 "data": [
  ["COC(=O)C(NC(=O)C(C)C)c1cc(F)ccc1F (stereo not drawn)", "%", -4.53],
  ["COc1cc(CNC2CCCN(c3ncccn3)C2)cc2c1OCO2 (stereo not drawn)", "%", 6.26],
  ["OCCC[C@@H]1CN(c2ncc(Cl)cc2Cl)CC[C@@H]1N1CCOCC1", "%", 4.24],
  ["CC(O)CN(C)S(=O)(=O)c1ccc(C#N)cc1F (stereo not drawn)", "%", -6.67],
  ["CNC(=O)C1Cn2ccnc2C2(CCN(C(=O)NC3CCCC3)CC2)O1 (stereo not drawn)", "%", -104]
]}

Reported cytotoxicity at 10 µM ( Cc1noc(C)c1CN1CCN(Cc2nccn2C)C(C)C1 (stereo not drawn) ) = -5.38

---

// reported cytotoxicity at 10 µM per item
- ASSAY REMARKS: Toxicity liver stage against HepG2, at 10uM
- Type: cell-based
- Set-up: test concentration 10 uM, cell line HepG2-A16-CD81EGFP
- RECORDED CONDITIONS: human, HepG2-A16-CD81EGFP cells; read-out: INHIBITION
Write the answer as a number in %, unit excluded.

The cases that follow already have their cytotoxicity at 10 µM on record.
{"columns": ["COMPOUND", "UNITS TEXT", "MEASURED RESULT"],
 "data": [
  ["CC(=O)NCCNC(=O)Nc1ccc(C)cc1OCc1ccccc1", "%", 9.79],
  ["Cc1cc(NC(=O)NCc2ccc(C)s2)no1", "%", -5.29],
  ["CC(C)c1noc(CCC(=O)NC(C)c2ccccn2)n1 (stereo not drawn)", "%", -5.86],
  ["CC[C@@]1(O)CCN(C(=O)CCSCc2ccc(F)cc2)C[C@H]1O", "%", 0.264],
  ["Cc1n[nH]c(C(=O)NCc2ccnc(OCC(F)(F)F)c2)c1Br", "%", 5.67],
  ["CCNC(=O)NCCc1csc(N2CCCC2)n1", "%", -4.63],
  ["Cc1oc(-c2ccco2)nc1CC(=O)N1CCN(CC(C)O)CC1 (stereo not drawn)", "%", -11.4],
  ["CC1CN(C)c2ccccc2CN1C(=O)NCc1ccon1 (stereo not drawn)", "%", 7.36]
]}

Please turn your attention to the following entry.
Reported cytotoxicity at 10 µM ( O=C(Cc1cccc(F)c1)N1CCc2ncnc(NC3CC3)c2CC1 ) = -98.5

---

// reported cytotoxicity at 10 µM per item
- ASSAY REMARKS: Toxicity liver stage against HepG2, at 10uM
- Type: cell-based
- Set-up: test concentration 10 uM, cell line HepG2-A16-CD81EGFP
- RECORDED CONDITIONS: human, HepG2-A16-CD81EGFP cells; read-out: INHIBITION
Write the answer as a number in %, unit excluded.

The cases that follow already have their cytotoxicity at 10 µM on record.
{"columns": ["COMPOUND", "MEASURED RESULT"],
 "data": [
  ["COCCN(C)CCN1CC2(CCN(C(=O)C3CCOC3)CC2)OC1=O (stereo unspecified)", -21.8],
  ["CCCC(=O)NC1CCN(c2ccccc2S(=O)(=O)CC)CC1", -2.78],
  ["CN(C)c1ncccc1CNC(=O)N1CCN(C)c2ccccc2C1", 4.72],
  ["O=C(c1cc2cc(F)ccc2[nH]1)N1CCCCC1Cn1cccn1 (stereo unspecified)", -8.91],
  ["NC(=O)N1CC[C@@H]2O[C@H](COCC(=O)N3CCCC3)CC[C@@H]21", -1.49]
]}

Please turn your attention to the following entry.
Reported cytotoxicity at 10 µM ( O=C1COC2(CCN(Cc3cccnc3)CC2)CN1 ) = 2.78
